experiment: gradient 5% acetonitrile 3 min, to 50% in 2 min, to 85% in 15 min, held 3 min, 100 µL/min
experimental context: column: Zorbax Extend-C18 2.1 x 50 mm; eluents: water / acetonitrile, 0.1% formic acid
Task for the reader: assign each of the following compounds its reported RP-LC retention time.

// worked examples, RP-LC retention time included
[
  {
    "compound": "COc1ccc(N2CC(c3nc4ccccc4n3CCN3CCOCC3)CC2=O)cc1 (centres undefined)",
    "RP-LC retention time": "600 s"
  },
  {
    "compound": "COc1ccc2c(c1)C1(CCN(C(=O)c3ccc(C)c(F)c3)C1)C(=O)N2C (centres undefined)",
    "RP-LC retention time": "610 s"
  },
  {
    "compound": "Cc1nc(-c2ccnc(N3CCOCC3)c2)no1",
    "RP-LC retention time": "614 s"
  }
]

Alright, here's another compound for you.
Sample CC1CCCN(CCCNC(=O)C2CCCN(c3ncnc4c3nc3n4CCCCC3)C2)C1 (centres undefined) — what was its RP-LC retention time? 585 s

* * *

experiment: gradient 5% acetonitrile 3 min, to 50% in 2 min, to 85% in 15 min, held 3 min, 100 µL/min
experimental context: column: Zorbax Extend-C18 2.1 x 50 mm; eluents: water / acetonitrile, 0.1% formic acid
Hi there, I'd appreciate the recorded RP-LC retention time for every entry that follows.
Give bare numbers, in s.

I need RP-LC retention time for every entry listed below, if you could help.
1. COc1ccc(-c2nnc(-c3ccc(Cl)c(S(=O)(=O)N(C)C)c3)o2)cc1
2. O=C(NCc1nc(-c2ccc(Cl)cc2)no1)NC1CCCCC1
3. Cc1ccc(-n2c(N3CCCC(C(=O)NCc4ccc(F)cc4F)C3)nc3ccsc3c2=O)cc1 (stereo not drawn)

1. 913
2. 916
3. 918

* * *

experiment: gradient 5% acetonitrile 3 min, to 50% in 2 min, to 85% in 15 min, held 3 min, 100 µL/min
experimental context: column: Zorbax Extend-C18 2.1 x 50 mm; eluents: water / acetonitrile, 0.1% formic acid
Provide the recorded RP-LC retention time for the entries that follow.
One number for each entry, in s.

Sample records with RP-LC retention time:
[
  {
    "compound": "COCCCNc1c(C(=O)OC)c(=O)[nH]c2c(Cl)cccc12",
    "RP-LC retention time (s)": 692
  },
  {
    "compound": "CCOC(=O)c1cccc(Nc2c(-c3ccc(OC)c(OC)c3)nc3cnccn23)c1",
    "RP-LC retention time (s)": 811
  },
  {
    "compound": "COc1ccc(NC(=O)N2CCN(c3ccc(=O)n(-c4ccc(C)cc4)n3)CC2)c(OC)c1",
    "RP-LC retention time (s)": 804
  },
  {
    "compound": "O=C([C@@H]1C[C@H](F)CN1S(=O)(=O)c1ccc(F)cc1)N1CCOCC1",
    "RP-LC retention time (s)": 664
  },
  {
    "compound": "CN1CCN(CC2(O)CCC3(CCN(C(=O)c4ccoc4)CC3)CC2)CC1",
    "RP-LC retention time (s)": 551
  }
]

Give me RP-LC retention time for each of these compounds, listed below.
1. CCCn1c(=O)sc2cc(S(=O)(=O)N3CCC(C(=O)Nc4ccccc4)CC3)ccc21
2. O=C1NC2(CCN(C(=O)c3cccc(F)c3)CC2)Nc2c(Cl)cccc21
3. CCSc1ccccc1C(=O)NCC1(c2ccccc2OC)CCOCC1
4. CCc1ccccc1S(=O)(=O)N1C[C@H](F)C[C@@H]1C(=O)N1CCOCC1
5. O=C(Nc1ccc(N2CCOCC2)cc1)C1CCc2sc(C(=O)N3CCCC3)cc2C1 (stereo not drawn)
6. CN1CCC(NC(=O)c2ccc3c(c2)N(S(=O)(=O)c2ccccc2F)CC3)CC1
7. O=C(CN1CCN(Cc2ccccc2)C1=O)NCC1CCCCC1
8. CC(C)c1ccc(-n2c3c(cc(C(=O)N4CCCCC4)c2=O)C(=O)CCC3)cc1

[965, 756, 843, 740, 669, 626, 682, 884]

List reported RP-LC retention time for each of these compounds:
1. CCc1noc(-c2cccnc2N2CCCN(Cc3ccc(F)cc3Cl)CC2)n1
2. Cc1ccnc(N2CCC(C(=O)NCCCN3CCCc4ccccc43)CC2)n1

700
665

State recorded RP-LC retention time for all listed compounds.
1. O=c1c2ccccc2c(-c2nc(-c3ccncc3)no2)cn1-c1ccccc1
2. Cc1oc(-c2[nH]ncc2C(=O)N2CCCCC2)cc1S(=O)(=O)Nc1ccc(F)c(F)c1
3. O=c1n(Cc2ccccc2Cl)nc2c(S(=O)(=O)N3CCc4ccccc4C3)cccn12

1. 1050
2. 780
3. 1030

* * *

experiment: gradient 5% acetonitrile 3 min, to 50% in 2 min, to 85% in 15 min, held 3 min, 100 µL/min
experimental context: column: Zorbax Extend-C18 2.1 x 50 mm; eluents: water / acetonitrile, 0.1% formic acid
property name: RP-LC retention time (s)
One number for each entry, in s.

Use the examples below as a reference point.
[
  {
    "compound": "COc1ccc(OCc2noc(CNC(=O)Nc3cc(OC)c(OC)c(OC)c3)n2)cc1",
    "readout unit": "s",
    "RP-LC retention time": 743
  },
  {
    "compound": "Cc1ccn2c(C(C)O)nnc2c1 (stereo not drawn)",
    "readout unit": "s",
    "RP-LC retention time": 574
  },
  {
    "compound": "Cc1ccc(Nc2c(-c3ccc(C)cc3)nc3ccc(C)cn23)cc1",
    "readout unit": "s",
    "RP-LC retention time": 797
  },
  {
    "compound": "CC1=NS(=O)(=O)N(C)C=C1C(=O)OCc1cccc(C)c1",
    "readout unit": "s",
    "RP-LC retention time": 967
  },
  {
    "compound": "CC(C)c1ccc(Nc2nc3ccncc3n(Cc3ccccc3)c2=O)cc1",
    "readout unit": "s",
    "RP-LC retention time": 886
  }
]

Here are 7 compounds. What values of RP-LC retention time were reported for them?
1. CC1CCN(S(=O)(=O)c2ccc3c(ccc(=O)n3CC(=O)NC3CCCc4ccccc43)c2)CC1 (stereo not drawn)
2. CCOC(=O)c1ccc(-c2c(C(=O)OCC)oc3cc(O)c(CC)cc3c2=O)o1
3. NC(=O)c1cccn1Cc1ccccc1Cl
4. COc1ccccc1CNC(=O)C1CCCN1S(=O)(=O)c1ccc2c(c1)C(C)(C)C(=O)N2C (stereo not drawn)
5. Cc1ccc(C)c2sc(N(C)CC(=O)O)nc12
6. CCOC(=O)C1CCN(c2cc3c(cc2NC(=O)C2CCCCC2)n(C)c(=O)c(=O)n3C)CC1
7. Cc1noc2nc(C)n(CC(=O)Nc3cccc(C(F)(F)F)c3)c(=O)c12

[919, 955, 804, 843, 793, 906, 879]

Please give RP-LC retention time for each item listed below.
1. COCCNC(=O)C1CCN(c2nc3ccc(-c4ccccc4)nc3s2)CC1
2. COc1cccc(Cn2cnc3c(-c4ccc(F)cc4)csc3c2=O)c1
3. CCCCOc1ccc(-c2csc(NC(=O)c3cc4cccc(OC)c4oc3=O)n2)cc1
4. O=C(Nc1ccc(N2CCOCC2)cc1)C1=Cc2cc(Cl)ccc2OC=C1
5. COc1cccc(C(=O)N2CCC3(CC2)NC(=O)c2ccc(Cl)cc2N3)c1
6. CCOC(=O)c1ccc(S(=O)(=O)NCCCn2nc(-c3ccncc3)ccc2=O)cc1
7. Cc1nc(-c2nnn(-c3ccccc3)c2C)sc1C(=O)NCCc1cccs1

832
1050
897
992
746
592
936

* * *

experiment: gradient 5% acetonitrile 3 min, to 50% in 2 min, to 85% in 15 min, held 3 min, 100 µL/min
experimental context: column: Zorbax Extend-C18 2.1 x 50 mm; eluents: water / acetonitrile, 0.1% formic acid
Simple rule here: RP-LC retention time less than 700 s is Y, otherwise N.

[
  {
    "compound": "Cc1cc(C2CCCN2C(=O)NC(C)(C)C)no1 (stereo not drawn)",
    "label value": "N"
  },
  {
    "compound": "COc1ccc(CNC(=O)c2nnc(-c3ccc(S(=O)(=O)N(C)C)cc3)o2)cc1",
    "label value": "N"
  },
  {
    "compound": "c1ccc(-n2nnc(-c3noc(-c4ccco4)n3)c2-c2ccncc2)cc1",
    "label value": "N"
  }
]

Please check: RP-LC retention time for "Cc1cccc(N2CCN(C(=O)C3CCN(S(=O)(=O)c4cn(C(C)C)cn4)CC3)CC2)c1C" , strictly under 700 s or not? N

Consider "Cc1ccccc1Cc1c(C)nc2nc(SCC(=O)NCCCN3CCOCC3)nn2c1C" . Does its RP-LC retention time lie strictly below 700 s? Y

* * *

For each record, write down the corresponding RP-LC retention time.
experiment: gradient 5% acetonitrile 3 min, to 50% in 2 min, to 85% in 15 min, held 3 min, 100 µL/min
experimental context: column: Zorbax Extend-C18 2.1 x 50 mm; eluents: water / acetonitrile, 0.1% formic acid
One number for each entry, in s.

Solved entries (count: 6):
[
  {
    "molecule": "COc1ccc(-c2ccc3nc(N4CCC(C(=O)O)CC4)sc3n2)cc1",
    "RP-LC retention time (s)": 825
  },
  {
    "molecule": "CCN(CC)C(=O)CSc1c(C)cnc2c1c(=O)n(C)c(=O)n2C",
    "RP-LC retention time (s)": 752
  },
  {
    "molecule": "COc1ccc(C(=S)N2CCN(c3ccccc3Cl)CC2)cc1OC",
    "RP-LC retention time (s)": 1260
  },
  {
    "molecule": "O=C1Cc2c(-c3ccccc3)cc(-c3cccc(Cl)c3)nc2-c2ccccc2N1",
    "RP-LC retention time (s)": 1260
  },
  {
    "molecule": "Cc1cc(N2CCC(C)CC2)n2nc(CN3CCN(C(C)C)CC3)nc2n1",
    "RP-LC retention time (s)": 590
  },
  {
    "molecule": "O=C(NC1CCCC1)C1CCN(C(=O)N2CCOc3ccc(Cl)cc32)CC1",
    "RP-LC retention time (s)": 841
  }
]

Hello, I would appreciate it if you could give RP-LC retention time for each entry below.
1. CCOC(=O)C1CCN(C(=O)C2c3ccccc3C(=O)N(C)C2c2cccs2)CC1 (stereo unspecified)
2. O=C(Nc1ccc(Cl)cc1F)NC1CCN(c2cc(N3CCOCC3)cnn2)C1 (stereo unspecified)
3. CCc1nnc(-c2ccc3ccn(CC(=O)Nc4cccc(C(C)=O)c4)c3c2)o1
4. CC(C)c1ccc(OCC(=O)Nc2nc(-c3ccccc3)cs2)cc1
5. O=C(O)/C=C\C(=O)Nc1ccc(-c2ccccc2)cc1
6. O=C(c1cc2cc(Cl)ccc2[nH]1)N1CCOCC1

810
649
788
1240
903
860

Working through the 3 molecules below one at a time, give RP-LC retention time for each.
1. Cc1nc(-c2cn(C)c3ncccc23)sc1C(=O)NCc1ccc(C(F)(F)F)cc1
2. CC(C)n1c(N2CCCN(C(=O)c3ccnn3C)CC2)cc(=O)n(C(C)C)c1=O
3. CCOc1ccc(-n2ccnc(NC(=O)Nc3ccc(F)cc3)c2=O)cc1

[981, 707, 985]

Kindly give each listed record's RP-LC retention time.
1. CC(C)CCNC(=O)c1cc2n(n1)CC(C)(C(=O)NCc1ccc(F)cc1)N(C)C2=O (stereo unspecified)
2. COCCc1noc([C@@H]2CC(F)(F)CN2C(=O)c2coc(C)n2)n1
3. Cc1noc2ncn(CC(=O)NCCCc3ccccc3)c(=O)c12
4. C=CCN1C(=O)COc2ccc(-c3nc(NC(=O)COC)sc3C)cc21

770
705
764
836

Batch: RP-LC retention time for all items listed.
1. Cc1ccc(S(=O)(=O)N(C)CCCC(=O)N2CCN(c3ccccn3)CC2)cc1
2. CN1C(=O)C2CCCCN2c2ccc(C(=O)NCCC3=CCCCC3)cc21 (stereo unspecified)
3. O=C(Cc1csc2nc(-c3ccccc3)cn12)NCc1ccccc1Cl
4. CS(=O)(=O)NCCc1ccc(CC2CCNCC2)cc1
5. Cc1[nH]c(C(=O)N2CCCC(C(=O)NCc3ccccc3)C2)c(C)c1C(=O)OC(C)C (stereo unspecified)
6. NC(=O)C1CCN(c2oc(-c3ccccc3Cl)nc2S(=O)(=O)c2ccccc2)CC1
7. Cn1c(N2CCCC(C(=O)N3CCN(c4ccc(Cl)cc4)CC3)C2)cc(=O)n(C)c1=O (stereo unspecified)

576
993
832
588
860
765
800

Please give RP-LC retention time for each item listed below.
1. CC(C)Oc1ccc(CNC(=O)C2CCCN(c3nn4c(=O)c5c(nc4s3)CCCC5)C2)cc1 (stereo unspecified)
2. CCCOc1nc2ccccc2nc1N1CCCC(C(=O)NC(C)c2ccccc2)C1 (stereo unspecified)
3. CCOC(=O)c1c(S(=O)(=O)N2CCC(C(=O)Nc3ccccc3OC)CC2)c(C)n(CC)c1C
4. Cc1[nH]nc(-c2ccc(S(=O)(=O)NC(C)C)o2)c1C

1: 844; 2: 1230; 3: 891; 4: 729

Provide reported RP-LC retention time for each item, in the same order as listed.
1. CSc1ccc(-c2nc3ccccn3c2Nc2ccc(Cl)cc2)cc1
2. COc1cccc(Cn2cccc(S(=O)(=O)N3CCCCCC3)c2=O)c1
3. CN(C(=O)Cn1c(=O)oc2ccc(C(=O)N3CCCC3)cc21)C1CCCCC1
4. CCCN(CC1CCOC1)C(=O)c1cc(Cl)ccc1F (stereo unspecified)
5. CC(=O)c1ccc(OC(=O)c2cc3c(C)nn(-c4ccccc4)c3s2)cc1
6. CC(C)NC(=O)Cn1ccn2nc(-c3ccccc3)c(CO)c2c1=O

[779, 935, 761, 844, 1310, 666]

Reference source: the METLIN SMRT retention time set (Domingo-Almenara et al. 2019)
